measurement.target: CDK6/cyclin D3 (Homo sapiens)
Construct: purchased Carna 04-107
Sequence (Q00534 whole entry): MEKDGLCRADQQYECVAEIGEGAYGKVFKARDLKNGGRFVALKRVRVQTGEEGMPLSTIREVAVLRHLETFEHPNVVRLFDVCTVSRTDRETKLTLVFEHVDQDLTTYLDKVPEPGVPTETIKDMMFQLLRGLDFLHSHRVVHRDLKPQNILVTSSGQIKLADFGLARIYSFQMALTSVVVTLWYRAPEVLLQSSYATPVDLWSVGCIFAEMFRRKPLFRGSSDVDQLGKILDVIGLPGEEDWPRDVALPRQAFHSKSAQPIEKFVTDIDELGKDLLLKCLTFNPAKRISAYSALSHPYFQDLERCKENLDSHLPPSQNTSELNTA
Sequence (P30281 whole entry partner): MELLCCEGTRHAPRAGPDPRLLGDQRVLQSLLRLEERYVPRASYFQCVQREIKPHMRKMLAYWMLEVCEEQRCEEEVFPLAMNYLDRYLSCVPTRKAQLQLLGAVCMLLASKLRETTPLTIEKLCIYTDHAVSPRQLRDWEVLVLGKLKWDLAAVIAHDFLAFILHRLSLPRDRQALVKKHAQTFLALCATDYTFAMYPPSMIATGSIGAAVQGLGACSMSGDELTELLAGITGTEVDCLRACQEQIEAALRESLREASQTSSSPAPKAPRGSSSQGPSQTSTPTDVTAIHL
assay.text: CDK6/cyclin D3 kinase activity, mobility shift assay
Assay type: biochemical
pIC50: −log10 of the molar value.
property.name: pIC50

Worked examples follow.
{"columns": ["compound", "pIC50"],
 "data": [
  ["Cc1nc2c(F)cc(-c3nc(N[C@@H]4CCN(S(C)(=O)=O)C[C@H]4O)ncc3Cl)c3c2n1[C@@H](C)CO3 (single isomer, unassigned) [Isomer 1 with a retention time of 2.094 min in Example 2]", 7.41],
  ["CC1COc2c(-c3nc(N[C@@H]4CCOC[C@H]4O)ncc3Cl)cc(F)c3nc(C(C)(C)O)n1c23 (mixture of isomers) [4f (racemate) in Example 4]", 6.77],
  ["Cc1nc2c(F)cc(-c3nc(N[C@@H]4CCN(S(C)(=O)=O)C[C@H]4O)ncc3Cl)c3c2n1[C@@H](C)CO3 (single isomer, unassigned) [Isomer 2 with a retention time of 2.499 min in Example 2]", 8.04]
]}

1: Cc1nc2c(F)cc(-c3nc(N[C@@H]4CCOC[C@H]4O)ncc3Cl)c3c2n1[C@@H](C)CO3 (single isomer, unassigned) [Isomer 1 with a retention time of 3.518 min in Example 3]
2: Cc1nc2c(F)cc(-c3nc(N[C@@H]4CCOC[C@H]4O)ncc3F)c3c2n1[C@@H](C)CO3 (single isomer, unassigned) [Isomer 2 with a retention time of 3.997 min in Example 1]
Task: // max by pIC50 over [ 1 , 2 ] Answer format: the label of the selected item.
Result: 1
